# melting point listing for each entry below
ATTRIBUTE_MEASURED: melting point

{"columns": ["COMPOUND", "VALUE_REPORTED"],
 "data": [
  ["CCOC(=O)CSc1nnc(SCCCBr)s1", "118 to 120 °C"],
  ["COC(=O)COc1ncccc1Oc1cc(N2C(=O)C=C(C(F)(F)F)CC2=O)c(F)cc1Cl", "75.3 °C"],
  ["O=c1[nH]c2cc(Cl)c(Cl)c([N+](=O)[O-])c2[nH]c1=O", "347 to 348 °C"],
  ["CCOC(=O)CN1C(=O)CSC1=NN=C(C)C", "60 to 62 °C"],
  ["CC1(C(=O)C(N)=O)CC1(Cl)Cl (stereo unspecified)", "92 to 93 °C"],
  ["CC1(C)CCSc2cc(-c3cc(-c4ccc(C(=O)O)cc4)ccc3-c3ccccc3)ccc21", "180 °C"]
]}
